Hey, just so you know, these numbers are from patent US9943519B2.

target.of.assay: human PI3K isoform delta (p110 delta) (Homo sapiens)
Sequence (O00329 whole entry, canonical isoform): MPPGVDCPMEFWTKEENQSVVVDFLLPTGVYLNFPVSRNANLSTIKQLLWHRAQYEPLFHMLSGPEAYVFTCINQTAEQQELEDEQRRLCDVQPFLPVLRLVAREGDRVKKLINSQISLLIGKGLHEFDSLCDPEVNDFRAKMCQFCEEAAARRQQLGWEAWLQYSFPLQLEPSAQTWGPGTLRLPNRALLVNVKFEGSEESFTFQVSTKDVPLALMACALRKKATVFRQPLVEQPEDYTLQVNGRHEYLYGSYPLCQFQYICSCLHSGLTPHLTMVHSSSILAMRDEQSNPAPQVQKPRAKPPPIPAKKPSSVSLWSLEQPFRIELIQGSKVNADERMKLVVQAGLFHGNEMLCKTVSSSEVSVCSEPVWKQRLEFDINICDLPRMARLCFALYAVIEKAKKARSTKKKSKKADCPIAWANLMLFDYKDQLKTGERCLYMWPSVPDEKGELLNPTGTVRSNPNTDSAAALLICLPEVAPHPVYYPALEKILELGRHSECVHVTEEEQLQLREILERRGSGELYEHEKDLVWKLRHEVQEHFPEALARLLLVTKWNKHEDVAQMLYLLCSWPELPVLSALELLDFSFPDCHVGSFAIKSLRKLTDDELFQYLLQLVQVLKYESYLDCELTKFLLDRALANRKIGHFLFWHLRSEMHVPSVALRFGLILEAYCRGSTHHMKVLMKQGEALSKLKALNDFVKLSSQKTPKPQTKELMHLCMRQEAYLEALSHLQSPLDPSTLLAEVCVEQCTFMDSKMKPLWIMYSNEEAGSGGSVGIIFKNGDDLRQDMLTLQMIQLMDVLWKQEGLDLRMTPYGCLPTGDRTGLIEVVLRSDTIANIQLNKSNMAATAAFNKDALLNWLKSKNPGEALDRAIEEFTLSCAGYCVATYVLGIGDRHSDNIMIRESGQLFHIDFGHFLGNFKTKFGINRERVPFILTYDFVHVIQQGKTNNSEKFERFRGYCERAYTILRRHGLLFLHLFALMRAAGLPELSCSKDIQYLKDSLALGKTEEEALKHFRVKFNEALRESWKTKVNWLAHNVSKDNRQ
Sequence (P27986 whole entry partner, canonical isoform): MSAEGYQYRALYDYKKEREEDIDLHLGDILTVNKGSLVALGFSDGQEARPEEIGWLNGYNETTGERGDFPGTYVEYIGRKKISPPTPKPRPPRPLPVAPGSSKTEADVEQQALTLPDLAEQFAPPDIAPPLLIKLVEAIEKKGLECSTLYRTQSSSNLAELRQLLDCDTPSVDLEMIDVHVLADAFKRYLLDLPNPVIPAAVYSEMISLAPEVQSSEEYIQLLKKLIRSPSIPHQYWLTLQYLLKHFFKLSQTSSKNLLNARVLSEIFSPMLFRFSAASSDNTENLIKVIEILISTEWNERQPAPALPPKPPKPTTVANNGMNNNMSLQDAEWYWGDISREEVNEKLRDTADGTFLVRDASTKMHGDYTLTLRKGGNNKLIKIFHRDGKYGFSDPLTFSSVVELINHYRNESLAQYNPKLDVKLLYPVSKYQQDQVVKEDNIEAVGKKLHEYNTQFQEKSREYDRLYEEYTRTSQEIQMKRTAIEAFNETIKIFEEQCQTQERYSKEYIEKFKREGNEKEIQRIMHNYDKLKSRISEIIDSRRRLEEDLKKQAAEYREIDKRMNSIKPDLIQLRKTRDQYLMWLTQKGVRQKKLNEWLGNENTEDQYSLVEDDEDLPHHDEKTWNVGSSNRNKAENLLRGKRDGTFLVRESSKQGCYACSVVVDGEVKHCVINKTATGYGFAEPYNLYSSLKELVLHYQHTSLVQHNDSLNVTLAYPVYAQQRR
measurement.notes: p110 isoform selectivity scintillation proximity assay (delta)
Type: biochemical
experimental.conditions: ratio of IC50 values, SPA, purified human PI3K isoforms
quantity: alpha/delta (fold potency over delta relative to alpha)

CN1CCN(S(=O)(=O)C2CCN(Cc3cc4nc(-c5cccc6[nH]ncc56)nc(N5CCOCC5)c4s3)CC2)CC1	<10 fold

For each listed entry, give its alpha/delta (fold potency over delta relative to alpha).
1. OC1CCCN(Cc2cc3nc(-c4cccc5[nH]ncc45)nc(N4CCOCC4)c3s2)C1 (stereo not drawn)
2. CN(C1CCN(Cc2cc3nc(-c4cccc5[nH]ncc45)nc(N4CCOCC4)c3s2)C1)S(C)(=O)=O (stereo not drawn)
3. CN(Cc1cc2nc(-c3cccc4[nH]ncc34)nc(N3CCOCC3)c2s1)CC1CCCN1S(C)(=O)=O (stereo not drawn)
4. CS(=O)(=O)N1CCN(Cc2cc3c(N4CCOCC4)nc(-c4cnc5[nH]cnc5c4)nc3s2)CC1
5. C[C@@H]1CN(S(C)(=O)=O)C[C@H](C)N1Cc1cc2nc(-c3cccc4[nH]ncc34)nc(N3CCOCC3)c2s1

1: <10 fold; 2: <10 fold; 3: <10 fold; 4: >10 fold; 5: <10 fold
